test system: IL6 production in RAW 264.7 macrophage cell line; experiment: Mouse IL6 quantification assay (LPS-stimulated macrophages, ELISA); assay type: cell-based; details: RAW264.7, RAW 264.7 murine leukemia virus transformed macrophage cell lines, LPS stimulation, read-out: IL-6 % Inhibition at 30 μM
I'd appreciate it if you could supply inhibition at 30 µM values for the items below.

## Input If you can, please state the reported inhibition at 30 µM value of O=C(CC(c1ccccc1)c1ccccc1)N1CCCc2c(O)nc(-c3ccccn3)nc21 [drawing 2086] .
## Output 26 to 50%

## Input Item c1ccc(-c2csc3nc(-c4ccccn4)nc(N4CCOCC4)c23)cc1 [drawing 2155] has what recorded inhibition at 30 µM?
## Output 1 to 25%

## Input Can you share its inhibition at 30 µM? I mean this compound: CNC(=O)CN1CCN(c2nc(-c3ccccn3)nc3scc(-c4ccccc4)c23)CC1 [drawing 2144]
## Output 1 to 25%

## Input Give its inhibition at 30 µM value. Item: CC(Nc1nc(-c2ccccn2)nc2scc(-c3ccccc3)c12)c1nncn1C (stereo not shown) [drawing 2138]
## Output 1 to 25%
